These measurements were taken from PubChem BioAssay (NCI).

Kindly supply the reported TGI values for the records listed here.
Test system: SK-MEL-2 melanoma
Experiment: NCI tumour cell line growth inhibition, 48 h

## Task Which measured TGI value corresponds to `Oc1ccc(Cc2nccc3cc(O)c(O)cc23)cc1O` ?
## Result > 100 µM

## Task Which measured TGI value corresponds to `Cc1ccc(N2CCC3(CC2)OCCO3)cc1` ?
## Result > 100 µM

## Task Which measured TGI value corresponds to CN1CCCOC(c2ccc([N+](=O)[O-])cc2)O1 (stereo not given) ?
## Result > 100 µM

## Task Which measured TGI value corresponds to `COC(=O)NN=C1C(C)(C)C(=O)C1(C)C` ?
## Result > 100 µM

## Task Which measured TGI value corresponds to COc1ccc(N2C(=O)C(C)SC2c2cc3cc(Br)ccc3nc2Cl)cc1 (stereo not given) ?
## Result 48.4 µM

## Task Which measured TGI value corresponds to `COc1ccc(NC(=O)COCCOCCNC[C@@H]2C(=O)O[C@H]3[C@H]2CC/C(COC(=O)OC/C2=C/CC[C@@]4(C)O[C@H]4[C@H]4OC(=O)[C@@H](CN(C)C)[C@@H]4CC2)=C\CC[C@@]2(C)O[C@@H]32)c(O)c1C(N)=O` ?
## Result 20.3 µM

## Task Which measured TGI value corresponds to `COC(=O)NC12CC3CC(CC(F)(C3)C1)C2` ?
## Result > 100 µM

## Task Which measured TGI value corresponds to `O=C(Nc1ccccc1)n1[nH]c(=O)n(-c2ccccc2)c1=O` ?
## Result > 100 µM

## Task Which measured TGI value corresponds to Cc1ccc2c(c1)C(C)Cc1c(Cl)ncnc1N2C (stereo not given) ?
## Result 8.1 µM

## Task Which measured TGI value corresponds to COc1cc2c(cc1OC)[C@H]1C(COC(=O)c3ccccc3)CSC(=Nc3ccccc3)N1CC2 (stereo not given in full) ?
## Result > 100 µM

----------
Kindly supply the reported TGI values for the records listed here.
Test system: HL-60(TB) leukemia
Assay: NCI tumour cell line growth inhibition, 48 h
The response must be a number in µM with no trailing unit.

## Task Which measured TGI value corresponds to `CCN(CC)CCn1c2ccccc2c(=O)c2c(O)ccc(O)c21` ?
## Result 46.8

## Task Which measured TGI value corresponds to CCCCCCCCCCCCCCCCOCC(CP(=O)([O-])OCC[n+]1ccccc1)OC (stereo not given) ?
## Result 5.19

## Task Which measured TGI value corresponds to CCN1C(=O)N(c2ccccc2)C2NC(=S)N(/N=C/C=C/c3ccccc3)C21 (stereo not given) ?
## Result 0.745

## Task Which measured TGI value corresponds to COC(=O)C1CCCN1C(=O)[C@@H]1CCCN1C(=O)[C@H](Cc1c[nH]c2ccccc12)NC(=S)Nc1cc(C(F)(F)F)cc(C(F)(F)F)c1 (stereo not given in full) ?
## Result 5.95

----------
Kindly supply the reported TGI values for the records listed here.
System: LOX IMVI melanoma
Test: NCI tumour cell line growth inhibition, 48 h

## Task Which measured TGI value corresponds to `Cc1ccc(C2=C(C#N)C(=O)N3CCN=C3S2)cc1` ?
## Result > 100 µM

## Task Which measured TGI value corresponds to `Cc1cc(=O)[nH]c2cc3c(c4c(n3Cc3ccc(Cl)cc3Cl)CC(C)(C)CC4=O)c(O)c12` ?
## Result > 100 µM

## Task Which measured TGI value corresponds to `S=C1CSc2c(ccc3ccccc23)N1` ?
## Result > 100 µM

## Task Which measured TGI value corresponds to COc1ccc(C2=NN(C(N)=S)C(c3ccccc3)C2)cc1 (stereo unspecified) ?
## Result > 100 µM

## Task Which measured TGI value corresponds to Cc1ccc(/C=C2\CN(C)CC3C2=NN(c2ccccc2)C3c2ccc(C)cc2)cc1 (stereo unspecified) ?
## Result > 100 µM

## Task Which measured TGI value corresponds to CN1C(=O)C(CC(=O)O)NC1=S (stereo unspecified) ?
## Result > 100 µM

## Task Which measured TGI value corresponds to `COc1cc(NC(=O)CSc2nc3ccc(C)cc3c(=O)n2Cc2ccccc2)cc(OC)c1OC` ?
## Result > 100 µM

## Task Which measured TGI value corresponds to `COc1ccc(-n2cc(-c3cc(OC)c(OC)c(OC)c3)nc2SCc2ccccc2)cc1OC` ?
## Result > 100 µM

## Task Which measured TGI value corresponds to CC(C)c1c(O)ccc2c1CCC1C(C)(C)CCCC21C (stereo unspecified) ?
## Result 31.1 µM

## Task Which measured TGI value corresponds to `C=CCN1C(=O)/C(=C/c2ccc(C)cc2)NC1=S` ?
## Result > 100 µM

## Task Which measured TGI value corresponds to `C=C1C(=O)O[C@H]2[C@H]1CCC(/C=N/c1ncc(Br)cc1N)=C\CC[C@@]1(C)O[C@@H]21` ?
## Result 3.46 µM

## Task Which measured TGI value corresponds to `CCOC(=O)/C(=C\c1ccc(C#N)cc1)C(C)=O` ?
## Result 34.5 µM

## Task Which measured TGI value corresponds to CC(C)C(Sc1nc(-c2ccccc2)c(-c2ccccc2)[nH]1)C(=O)NN (stereo unspecified) ?
## Result > 100 µM

## Task Which measured TGI value corresponds to `FC(F)(F)c1ccc(C#Cc2ccccc2C#Cc2ccccc2)cc1` ?
## Result 55.3 µM

## Task Which measured TGI value corresponds to `COc1ccc2c(c1)-c1[nH]c3ccc(OC)cc3c1CC2` ?
## Result 29.8 µM

## Task Which measured TGI value corresponds to CC1OC(OC2C(OC(=O)[C@@H]3CC(C)(C)C[C@@H]4C5=CC[C@@H]6[C@@]7(C)C[C@H](O)[C@H](OC8OC(CO)C(O)C(O)C8O)[C@@](C)(CO)C7[C@H](O)C[C@@]6(C)[C@]5(C)C[C@@H](O)[C@H]43)OCC(O)C2O)C(O)C(O)C1O (stereo partly specified) ?
## Result > 15 µM

## Task Which measured TGI value corresponds to CC(C)(C)NCC(O)c1ccc(O)c(CO)n1 (stereo unspecified) ?
## Result > 100 µM

## Task Which measured TGI value corresponds to Cc1ccc2c(c1)C(C)Cc1c(Cl)ncnc1N2C (stereo unspecified) ?
## Result 3.78 µM

## Task Which measured TGI value corresponds to `COC(=O)C1=C(C(=O)OC)SC(=C(Cl)C(=S)Nc2ccccc2O)S1` ?
## Result 24.5 µM

## Task Which measured TGI value corresponds to CN(C(=O)C1CCCCCC1=O)c1ccccc1Cl (stereo unspecified) ?
## Result > 100 µM

## Task Which measured TGI value corresponds to `C1CSC(=[N+]2CC[N+](=C3SCCS3)CC2)S1` ?
## Result > 100 µM

----------
System: COLO 205 colon
Test: NCI tumour cell line growth inhibition, 48 h
Readout name: TGI

## Task Which measured TGI value corresponds to `C1CSC(=[N+]2CC[N+](=C3SCCS3)CC2)S1` ?
## Result > 100 µM

## Task Which measured TGI value corresponds to `CSc1sc(=S)sc1C(=O)N(C)c1ccccc1` ?
## Result > 100 µM

## Task Which measured TGI value corresponds to O=C(c1ccccc1)N1OCCC1Nc1ccc(Br)cc1 (centres undefined) ?
## Result 4.33 µM

## Task Which measured TGI value corresponds to `Cc1ccc2nc(-c3ccccc3)c(N=O)n2c1` ?
## Result > 100 µM

## Task Which measured TGI value corresponds to `Cc1c2c(Cl)c3c(c(Cl)c2c(C)c2c(Cl)c4c(c(Cl)c12)C(c1ccccc1)(c1ccccc1)C4(c1ccccc1)c1ccccc1)C(c1ccccc1)(c1ccccc1)C3(c1ccccc1)c1ccccc1` ?
## Result > 100 µM

## Task Which measured TGI value corresponds to `O=C(Nc1ccc2[nH]c(=S)sc2c1)Nc1ccccc1F` ?
## Result 65.4 µM

## Task Which measured TGI value corresponds to O=C1C=CC2(O)OCCN(CCO)C2=C1 (centres undefined) (tested in a mixture with another compound) ?
## Result > 100 µM

## Task Which measured TGI value corresponds to `COc1cc(/C=C/C(=O)c2c(C)nc3ccccc3c2/C=C/c2ccc(C)cc2)cc(OC)c1OC` ?
## Result 6.09 µM

## Task Which measured TGI value corresponds to `CCOC(=O)[C@@H]1CCN2CN(c3ccc(OC)cc3)N=C(c3ccccc3)[C@@]12c1ccccc1` ?
## Result 61.3 µM

----------
Test system: NCI-H460 lung
Log the outcome using a class from T (active), F (inactive)

## Task Please share the test call associated with `S=c1ssc(Oc2ccccc2)c1Cl` .
## Result F

## Task Please share the test call associated with `O=S(=O)(c1cccc2c(Cl)cccc12)N1CCCNCC1` .
## Result F

## Task Please share the test call associated with `CCN1Cc2c(ccc(F)c2C#N)O[C@@H](C)CNC(=O)c2c(N)nn3ccc1nc23` .
## Result F

## Task Please share the test call associated with `CC[C@@]1(OC(=O)CN)C(=O)OCc2c1cc1n(c2=O)Cc2cc3c(N)cccc3nc2-1` .
## Result T

## Task Please share the test call associated with CNC(=O)CC1NC(=O)c2csc(n2)-c2ccc(-c3nc(C4=NC(C(=O)N5CCCC5C(N)=O)CO4)cs3)nc2-c2csc(n2)-c2csc(n2)C(C(C)C)NC(=O)CNC(=O)c2csc(n2)C(C(C)C)NC(=O)c2nc1sc2C (stereo not given) .
## Result F
